Measured values drawn from patent US12410185B2 for this set.

System: CALR mutant cell lines
Method: cells
Applied conditions: 72 h, read-out: IC50 in mutant cell lines
Let's look at some compounds and their measured IC50.

[
  {
    "Compound": "Oc1cc2c(cc1O)[C@@H]1c3ccc(O)c(O)c3OC[C@]1(O)C2",
    "IC50, µM": 2.6
  },
  {
    "Compound": "N#CC[C@H](C1CCCC1)n1cc(-c2ncnc3[nH]ccc23)cn1 [ruxolitinib, Ruxolitinib, reference compound]",
    "IC50, µM": 0.195
  },
  {
    "Compound": "Oc1ccc2c(c1)OC[C@]1(O)Cc3cc(O)c(O)cc3[C@H]21",
    "IC50, µM": 1.9
  }
]
